- TARGET OR SYSTEM: CYP3A4 (Homo sapiens)
- Construct: pre-incubated with human liver microsomes and NADPH; from tissue; host or cells: human liver microsomes
- Sequence (P08684 whole entry): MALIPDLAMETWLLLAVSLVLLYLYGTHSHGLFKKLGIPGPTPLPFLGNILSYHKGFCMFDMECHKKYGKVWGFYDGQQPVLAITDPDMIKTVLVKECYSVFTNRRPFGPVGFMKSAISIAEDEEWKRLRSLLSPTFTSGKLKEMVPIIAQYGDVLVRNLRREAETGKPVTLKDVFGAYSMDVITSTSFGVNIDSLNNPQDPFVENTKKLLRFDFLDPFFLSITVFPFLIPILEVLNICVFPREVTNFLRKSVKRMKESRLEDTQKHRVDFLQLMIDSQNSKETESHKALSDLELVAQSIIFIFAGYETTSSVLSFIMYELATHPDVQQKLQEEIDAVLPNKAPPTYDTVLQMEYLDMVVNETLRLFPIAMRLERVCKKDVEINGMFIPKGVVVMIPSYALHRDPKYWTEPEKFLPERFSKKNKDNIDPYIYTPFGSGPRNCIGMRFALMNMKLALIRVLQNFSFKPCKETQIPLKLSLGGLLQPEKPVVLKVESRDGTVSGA
- TEST DETAILS: Cytochrome P450 inhibition assay (midazolam hydroxylation)
- Assay type: in vitro ADME
- RECORDED CONDITIONS: human, human liver microsomes, probe midazolam (hydroxylation to 1′-hydroxymidazolam), 10 μM test compound, midazolam at approximately its Km
I'd be grateful if you could share measured inhibition at 10 µM for these entries.
Note to self: number, then unit, no commentary.

Answered examples (3):
>>> print(df.to_string())
                                   molecule           observable  result
0  Cc1ccc(-c2ncccn2)c(C(=O)N2CCC[C@@H](C)[C@H]2CNc2ccc(Cl)cn2)n1 [Example A186]  inhibition at 10 µM     53%
1  Cc1c(F)ccc(C(=O)N2CCC[C@@H](C)[C@H]2CNc2ncc(C(F)(F)F)cn2)c1-n1nccn1 [Example A345]  inhibition at 10 µM     60%
2  Cc1ccc(-n2nccn2)c(C(=O)N2CCC[C@@H](C)[C@H]2CNc2nc(C)cs2)c1 [Example A124]  inhibition at 10 µM     55%

Would you mind listing inhibition at 10 µM for each of the following molecules?
1. COc1ccc(NC[C@@H]2[C@H](C)CCCN2C(=O)c2cc(C)ccc2-n2nccn2)nc1 [Example A126]
2. Cc1cc(F)c(-n2nccn2)c(C(=O)N2CCC[C@@H](C)[C@H]2CNc2ncc(C(F)(F)F)cn2)c1 [Example A373]
3. C[C@@H]1CCCN(C(=O)c2c(F)cccc2-n2nccn2)[C@@H]1CNc1ncc(C(F)(F)F)cn1 [Example A259]

["56%", "60%", "37%"]

====

- TARGET OR SYSTEM: OX1 (Homo sapiens)
- Construct: expressed in transfected cells; host or cells: CHO (CHO-OX1, kept under selection antibiotic)
- Sequence (O43613 whole entry): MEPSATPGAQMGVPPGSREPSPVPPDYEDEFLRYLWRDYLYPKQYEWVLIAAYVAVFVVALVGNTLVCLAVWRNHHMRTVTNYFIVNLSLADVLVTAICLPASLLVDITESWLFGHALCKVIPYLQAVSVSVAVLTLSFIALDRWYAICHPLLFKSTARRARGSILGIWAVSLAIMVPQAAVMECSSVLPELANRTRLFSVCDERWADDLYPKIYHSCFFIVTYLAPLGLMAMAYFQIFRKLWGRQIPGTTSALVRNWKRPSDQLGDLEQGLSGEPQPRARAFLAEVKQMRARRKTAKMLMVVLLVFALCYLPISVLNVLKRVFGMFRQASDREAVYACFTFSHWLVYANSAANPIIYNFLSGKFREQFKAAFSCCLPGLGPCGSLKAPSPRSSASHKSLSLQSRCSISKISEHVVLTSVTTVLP
- TEST DETAILS: Orexin receptor cell-based functional assay, [Ca2+]i by FLIPR, CHO-OX1 cells
- RECORDED CONDITIONS: Table 2; CHO-OX1 cells, EC90 of OXA; read-out: IC50 Bioactivity OX1
I'd be grateful if you could share measured pIC50 for these entries.
Give bare numbers, as −log10 of the molar value.

Answered examples (5):
                                   compound  result
0  Cc1nc(C(=O)N2CCC[C@@H](C)[C@H]2CNc2ccc(C#N)cn2)c(-c2ccc(F)cc2)s1 (racemic)    6.85
1  Cc1ccc(-c2ncccn2)c(C(=O)N2CCC[C@@H](C)[C@H]2CNc2ccc(C(F)(F)F)cn2)c1 (racemic)    7.77
2  Cc1nc(C(=O)N2CCC[C@@H](C)[C@H]2CNc2cc(C(F)(F)F)ccn2)c(-c2ccc(F)cc2)s1 (racemic)    7.62
3  C[C@@H]1CCCN(C(=O)c2ccccc2OC(F)(F)F)[C@@H]1CNc1ncc(Cl)cn1 (racemic)    5.46
4  Cc1nc(-c2ccccc2)c(C(=O)N2CCC(=O)[C@H]2CNC(=O)c2cccc3cccnc23)s1    6.64

Would you mind listing pIC50 for each of the following compounds?
1. Cc1nc(-c2ccccc2)c(C(=O)N2C[C@@H]3CCCC[C@@H]3[C@H]2CNC(=O)c2cccc3cccnc23)s1 (racemic)
2. Cc1nc(-c2ccccc2)c(C(=O)N2C(C)CCCC2CCOc2ccccc2)s1 (racemic)
3. COc1cnc(NC[C@@H]2[C@H](C)CCCN2C(=O)c2nc(C)sc2-c2ccc(F)cc2)nc1 (racemic)
4. CO[C@@H]1CCCN(C(=O)c2nc(C)sc2-c2ccc(F)cc2)[C@@H]1CNc1nc2ccccc2s1 (racemic)

[5.52, 6.66, 7.38, 7.12]

Would you mind listing pIC50 for each of the following compounds?
1. Cc1nc(C(=O)N2CC(NCCO)CCC2CNC(=O)c2cccc3cccnc23)c(-c2cccc(F)c2)s1 (racemic)
2. O=C1C[C@@H](CNC(=O)c2cccc3cccnc23)N(C(=O)c2ccccc2-c2ccccc2)C1

1: 6.74; 2: 7.52
